Ki values recorded for Bcl-2-like protein 1 (Homo sapiens, UniProt Q07817)
MEASUREMENT NAME: Ki (nM)

compound=CN(C)CC[C@H](CSc1ccccc1)Nc1ccc(S(=O)(=O)NC(=O)c2ccc(N3CCC(=Cc4ccccc4C(F)(F)F)CC3)cc2)cc1[N+](=O)[O-] value_modifier=< reported_measurement=0.5
compound=CN(C)CC[C@H](CSc1ccccc1)Nc1ccc(S(=O)(=O)NC(=O)c2ccc(N3CCC4(CC3)CC(Cc3ccccc3)=NO4)cc2)cc1[N+](=O)[O-] value_modifier== reported_measurement=1.7
compound=CN(C)CC[C@H](CSc1ccccc1)Nc1ccc(S(=O)(=O)NC(=O)c2ccc(N3CCC(=Cc4ccccn4)CC3)cc2)cc1[N+](=O)[O-] value_modifier== reported_measurement=3.6
compound=CSc1ccccc1CN1CCN(c2ccc(C(=O)NS(=O)(=O)c3ccc(N[C@H](CCN(C)C)CSc4ccccc4)c([N+](=O)[O-])c3)cc2)CC1 value_modifier=< reported_measurement=0.5
compound=CN(C)CC[C@H](CSc1ccccc1)Nc1ccc(S(=O)(=O)NC(=O)c2ccc(N3CCC(=Cc4cccnc4)CC3)cc2)cc1[N+](=O)[O-] value_modifier== reported_measurement=1.3
compound="CC1OC2(CCN(c3ccc(C(=O)NS(=O)(=O)c4ccc(N[C@H](CCN(C)C)CSc5ccccc5)c([N+](=O)[O-])c4)cc3)CC2)N(Cc2ccccc2)C1=O (stereo partly specified)" value_modifier== reported_measurement=3.7

---

MEASURED ON: Apoptosis regulator Bcl-2 (Homo sapiens)
Sequence (P10415 whole entry): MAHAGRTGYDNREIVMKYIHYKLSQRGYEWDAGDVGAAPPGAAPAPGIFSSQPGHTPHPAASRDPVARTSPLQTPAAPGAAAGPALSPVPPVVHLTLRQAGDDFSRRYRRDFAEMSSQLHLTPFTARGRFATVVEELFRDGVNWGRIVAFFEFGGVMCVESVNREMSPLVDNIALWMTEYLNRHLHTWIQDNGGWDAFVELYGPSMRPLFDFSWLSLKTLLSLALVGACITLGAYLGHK
PROTOCOL SUMMARY: Displacement of Bax-derived peptide from Bcl2 by fluorescence polarization assay
pKi: −log10 of the molar value.
MEASUREMENT NAME: pKi

structure_smiles=COC1(CC2CCCCC2)CCN(c2ccc(C(=O)NS(=O)(=O)c3ccc(N[C@H](CCN(C)C)CSc4ccccc4)c([N+](=O)[O-])c3)cc2)CC1 measured_on="Apoptosis regulator Bcl-2 (Homo sapiens)" measurement_name=pKi value_modifier== reported_measurement=8.18
structure_smiles=CN(C)CC[C@H](CSc1ccccc1)Nc1ccc(S(=O)(=O)NC(=O)c2ccc(N3CCN(Cc4ccccc4C4CCCCC4)CC3)cc2)cc1[N+](=O)[O-] measured_on="Apoptosis regulator Bcl-2 (Homo sapiens)" measurement_name=pKi value_modifier=> reported_measurement=9.00
structure_smiles=CN(C)CC[C@H](CSc1ccccc1)Nc1ccc(S(=O)(=O)NC(=O)c2ccc(N3CCC4(CC3)CC(c3ccccc3)=NO4)cc2)cc1[N+](=O)[O-] measured_on="Apoptosis regulator Bcl-2 (Homo sapiens)" measurement_name=pKi value_modifier== reported_measurement=7.45
structure_smiles=CN(C)CC[C@H](CSc1ccccc1)Nc1ccc(S(=O)(=O)NC(=O)c2ccc(N3CCC(=Cc4ccccc4C(F)(F)F)CC3)cc2)cc1[N+](=O)[O-] measured_on="Apoptosis regulator Bcl-2 (Homo sapiens)" measurement_name=pKi value_modifier== reported_measurement=8.70
structure_smiles=CN(C)CC[C@H](CSc1ccccc1)Nc1ccc(S(=O)(=O)NC(=O)c2ccc(N3CCN(Cc4ccccc4NC4CCCCC4)CC3)cc2)cc1[N+](=O)[O-] measured_on="Apoptosis regulator Bcl-2 (Homo sapiens)" measurement_name=pKi value_modifier== reported_measurement=8.46
structure_smiles=CN(C)CC[C@H](CSc1ccccc1)Nc1ccc(S(=O)(=O)NC(=O)c2ccc(N3CCN(Cc4ccccc4-c4cccnc4)CC3)cc2)cc1[N+](=O)[O-] measured_on="Apoptosis regulator Bcl-2 (Homo sapiens)" measurement_name=pKi value_modifier== reported_measurement=9.00
